Entries and their GI50 values follow.
system: OVCAR-3 ovarian; assay: NCI tumour cell line growth inhibition, 48 h

# example entries with known answers
Known value: OVCAR-3 ovarian GI50 of the compound N[C@H](CCC(=O)N[C@@H](Cc1c[nH]c2ccccc12)C(=O)O)C(=O)O equals > 100 µM

Tested on OVCAR-3 ovarian: O=C1Nc2ccccc2/C1=C1\CCc2cc(O)ccc21 . Observed GI50: 9.95 µM

Assay OVCAR-3 ovarian, sample O=C(O)c1cccc(COc2ccc([N+](=O)[O-])cc2Cl)c1 , GI50 read: 50.3 µM

Continuing:
Entry COc1cc(/C=C\c2cc(OC)c(OC)c(OC)c2)cc(N/C=C\C(=O)c2c[nH]c3ccccc23)c1OC , OVCAR-3 ovarian data, GI50 value: 1.72 µM

GI50 of CCc1ccc2c(c1)C(=O)c1c-2n(CCCN=[N+]=[N-])c(=O)c2cc([N+](=O)[O-])ccc12 , assay on OVCAR-3 ovarian, is > 50 µM

Recorded GI50 for O=C(/C(=C\c1c(-c2ccccc2)[nH]c2ccccc12)S(=O)(=O)c1ccccc1)c1ccccc1 on OVCAR-3 ovarian was > 100 µM

OVCAR-3 ovarian GI50 of COc1cc2cc(Oc3ccc(NC(=O)c4cc(C(F)(F)F)cc(C(F)(F)F)c4)cc3)c(C)nc2cc1OC is 1.96 µM

Taken from PubChem BioAssay (NCI).
